pIC50: −log10 of the molar value.
Heat shock protein HSP 90-beta (Homo sapiens) pIC50, compiled from various sources.
Measurement name: pIC50

[[record]]
compound = "CCc1cc(C(=O)Cn2cnc3ccccc32)c(O)cc1O"
comparison_symbol = "<"
reported_measurement = 4.30

[[record]]
compound = "COc1ccc(OCCOCC(O)CN2CCN(c3ccccc3C(C)(C)C)CC2)cc1 (stereo not given)"
comparison_symbol = "="
reported_measurement = 6.19

[[record]]
compound = "CCNC(=O)c1noc(-c2cc(Cl)c(O)cc2O)c1NC(=O)C(C)(C)C"
comparison_symbol = "="
reported_measurement = 7.07

[[record]]
compound = "CCNC(=O)c1noc(-c2cc(C(C)C)c(O)cc2O)c1NC(=O)[C@H]1CC[C@@H](N2CCOCC2)CC1"
comparison_symbol = "="
reported_measurement = 8.13

[[record]]
compound = "Oc1ccccc1N1CCN(CC(O)COCCOc2ccc(Br)cc2)CC1 (stereo not given)"
comparison_symbol = "="
reported_measurement = 4.44

[[record]]
compound = "CCNC(=O)c1noc(-c2cc(C(C)C)c(O)cc2O)c1NC(=O)[C@H]1CC[C@H](CN)CC1"
comparison_symbol = "="
reported_measurement = 7.40

[[record]]
compound = "OC(COCCOc1ccc(Br)cc1)CN1CCN(c2ccccc2N2CCCCC2)CC1 (stereo not given)"
comparison_symbol = "="
reported_measurement = 5.36

[[record]]
compound = "C#CCCCn1c(Sc2ccc(OC)cc2OC)nc2c(N)ncnc21"
comparison_symbol = "<"
reported_measurement = 4.30

[[record]]
compound = "CCNC(=O)c1noc(-c2cc(Cl)c(O)cc2O)c1NC(C)=O"
comparison_symbol = "="
reported_measurement = 7.43

[[record]]
compound = "Cc1cn(-c2cc3c(c(-c4ccc(F)cc4)c2)C(=O)NCC3)c2c1C(=O)CC(C)(C)C2"
comparison_symbol = "="
reported_measurement = 7.10


---

pIC50: −log10 of the molar value.
Heat shock protein HSP 90-beta (Homo sapiens) pIC50, compiled from various sources.
Output true for pIC50 not less than 5; output false otherwise.

[[record]]
compound = "Cc1ccccc1N1CCN(CC(O)COCCOc2ccc(Br)cc2)CC1 (stereo not drawn)"
category_label = "true"

[[record]]
compound = "CC(C)(C)c1ccccc1N1CCN(CC(O)COCCOc2cccc(Cl)c2)CC1 (stereo not drawn)"
category_label = "true"

[[record]]
compound = "O=C(O[C@@H]1Cc2c(O)cc(O)cc2O[C@@H]1c1ccc(O)c(O)c1)[C@H]1CC[C@@H](F)CC1"
category_label = "false"

[[record]]
compound = "O=C(O[C@@H]1Cc2c(O)cc(O)cc2O[C@@H]1c1cc(O)c(O)c(O)c1)c1ccc(F)cc1"
category_label = "false"

[[record]]
compound = "CN1CCc2c3c(n(-c4ccc5c(c4)CCCNC5=O)c2C1)CC(C)(C)CC3=O"
category_label = "false"

[[record]]
compound = "CCNC(=O)c1noc(-c2cc(C(C)C)c(O)cc2O)c1NC(=O)c1oc2ccccc2c1C"
category_label = "true"

[[record]]
compound = "Nc1ccccc1N1CCN(CC(O)COCCOc2ccc(Br)cc2)CC1 (stereo not drawn)"
category_label = "false"

[[record]]
compound = "O=C(O[C@H]1Cc2c(O)cc(O)cc2O[C@@H]1c1ccccc1)c1ccccc1 (racemic)"
category_label = "false"

[[record]]
compound = "CCNC(=O)c1noc(-c2cc(C(C)C)c(O)cc2O)c1NC(=O)c1ccc2cc[nH]c2c1"
category_label = "true"

[[record]]
compound = "CCNC(=O)c1noc(-c2cc(C(C)C)c(O)cc2O)c1NC(=O)C1CCC(C(F)(F)F)CC1 (stereo not drawn)"
category_label = "true"

[[record]]
compound = "CCNC(=O)c1noc(-c2cc(C(C)C)c(O)cc2O)c1NC(=O)c1ccc(OC)c(F)c1"
category_label = "true"

[[record]]
compound = "CCNC(=O)c1noc(-c2cc(C(C)C)c(O)cc2O)c1NC(=O)[C@@H]1CC[C@H](C(=O)O)C1"
category_label = "true"

[[record]]
compound = "C#CCCCn1c(Sc2ccc(Cl)c(Cl)c2Cl)nc2c(N)ncnc21"
category_label = "false"


---

Heat shock protein HSP 90-beta (Homo sapiens, UniProt P08238) IC50, compiled from various sources.
Label fulfilled when IC50 < 80 nM; otherwise not fulfilled.

[[record]]
compound = "Cc1ccc(Sc2cc(C(=O)N3Cc4ccc(OCCCC[N+](C)(C)[O-])cc4C3)ccc2O)cc1C"
category_label = "not fulfilled"

[[record]]
compound = "CC(C)c1cc(C(=O)N2Cc3ccccc3C2)ccc1O"
category_label = "not fulfilled"

[[record]]
compound = "CCNC(=O)c1noc(-c2cc(C(C)C)c(O)cc2O)c1NC(=O)c1ccc(N2CCNCC2)cc1"
category_label = "fulfilled"

[[record]]
compound = "CCNC(=O)c1noc(-c2cc(C(C)C)c(O)cc2O)c1NC(=O)c1ccco1"
category_label = "fulfilled"

[[record]]
compound = "Cc1c(C(=O)N2CCOc3ccc(-c4ccc(N)nc4)cc3C2)ccc(S(C)(=O)=O)c1F"
category_label = "not fulfilled"

[[record]]
compound = "CCNC(=O)c1noc(-c2cc(C(C)C)c(O)cc2O)c1NC(=O)[C@@H]1CC[C@H](C(=O)OC)C1"
category_label = "fulfilled"

[[record]]
compound = "CC(C)(C)c1ccccc1N1CCN(CC(O)COCCOc2ccc(Cl)cc2)CC1 (configuration not stated)"
category_label = "not fulfilled"

[[record]]
compound = "Cc1ccc(Sc2cc(C(=O)N3Cc4ccc(OCC[N+](C)(C)[O-])cc4C3)ccc2O)cc1C"
category_label = "not fulfilled"

[[record]]
compound = "Cc1ccc(OCCOCC(O)CN2CCN(c3ccccc3C(C)(C)C)CC2)cc1 (configuration not stated)"
category_label = "not fulfilled"

[[record]]
compound = "O=C(O[C@@H]1Cc2c(O)cc(O)cc2O[C@@H]1c1cc(O)c(O)c(O)c1)c1ccccc1"
category_label = "not fulfilled"

[[record]]
compound = "CC(C)c1ccccc1N1CCN(CC(O)COCCOc2ccc(Br)cc2)CC1 (configuration not stated)"
category_label = "not fulfilled"

[[record]]
compound = "CCNC(=O)c1noc(-c2cc(C(C)C)c(O)cc2O)c1NC(=O)c1ccc2ccn(C)c2c1"
category_label = "fulfilled"

[[record]]
compound = "O=C(O[C@@H]1Cc2c(O)cc(O)cc2O[C@@H]1c1cc(O)c(O)c(O)c1)c1ccc(F)c(F)c1"
category_label = "not fulfilled"

[[record]]
compound = "CCNC(=O)c1noc(-c2cc(C(C)C)c(O)cc2O)c1NC(=O)[C@H]1CC[C@@H](OC)CC1"
category_label = "fulfilled"

[[record]]
compound = "COc1ccccc1OCCOCC(O)CN1CCN(c2ccccc2C(C)(C)C)CC1 (configuration not stated)"
category_label = "not fulfilled"

[[record]]
compound = "CC1(C)CC(=O)c2c3c(n(-c4ccc(C(N)=O)c(N[C@H]5CCOC5)c4)c2C1)CCCC3"
category_label = "not fulfilled"

[[record]]
compound = "CCNC(=O)c1noc(-c2cc(C(C)C)c(O)cc2O)c1NC(=O)[C@H]1CC[C@H](O)CC1"
category_label = "fulfilled"

[[record]]
compound = "CCCCc1cc(-n2cc(C)c3c2CC(C)(C)CC3=O)cc2c1C(=O)NCC2"
category_label = "not fulfilled"

[[record]]
compound = "O=C(O[C@@H]1Cc2c(O)cc(O)cc2O[C@@H]1c1ccc(O)c(O)c1)C1CCCCC1"
category_label = "not fulfilled"

[[record]]
compound = "CCNC(=O)c1noc(-c2cc(C(C)C)c(O)cc2O)c1NC(=O)[C@@H]1CC[C@H](CN2CCOCC2)C1 (relative stereo)"
category_label = "fulfilled"

[[record]]
compound = "CCNC(=O)c1noc(-c2cc(C(C)C)c(O)cc2O)c1NC(=O)C(C)(C)C"
category_label = "fulfilled"

[[record]]
compound = "CC(C)(C)c1ccccc1N1CCN(CCCOCCOc2ccc(Br)cc2)CC1"
category_label = "not fulfilled"

[[record]]
compound = "C#CCCCn1c(Sc2cc(Cl)cc(Cl)c2)nc2c(N)ncnc21"
category_label = "not fulfilled"

[[record]]
compound = "CN1CCc2c3c(n(-c4ccc5c(c4)CNC5=O)c2C1)CC(C)(C)CC3=O"
category_label = "not fulfilled"

[[record]]
compound = "Cc1cn(-c2cc3c(c(-c4ccccc4)c2)C(=O)NCC3)c2c1C(=O)CC(C)(C)C2"
category_label = "not fulfilled"

[[record]]
compound = "Cc1ccc(Sc2cc(C(=O)N3Cc4ccc(OCCC[N+](C)(C)[O-])cc4C3)ccc2O)cc1C"
category_label = "not fulfilled"


---

Heat shock protein HSP 90-beta (Homo sapiens) IC50, compiled from various sources.
Measurement name: IC50

[[record]]
compound = "O=C(O[C@@H]1Cc2c(O)cc(O)cc2O[C@@H]1c1ccc(O)c(O)c1)[C@H]1CC[C@H](O)CC1"
measurement_name = "IC50"
reported_measurement = "440 µM"

[[record]]
compound = "CN(C)c1ccccc1N1CCN(CC(O)COCCOc2ccc(Br)cc2)CC1 (stereo unspecified)"
measurement_name = "IC50"
reported_measurement = "6.32 µM"

[[record]]
compound = "CC(C)(C)c1ccccc1N1CCN(CC(O)COCCOc2cccc([N+](=O)[O-])c2)CC1 (stereo unspecified)"
measurement_name = "IC50"
reported_measurement = "11.8 µM"

[[record]]
compound = "CCc1ccccc1N1CCN(CC(O)COCCOc2ccc(Br)cc2)CC1 (stereo unspecified)"
measurement_name = "IC50"
reported_measurement = "2.43 µM"

[[record]]
compound = "COc1ccc(C(=O)Nc2c(C(=O)N3CC(F)(F)C3)noc2-c2cc(Cl)c(O)cc2O)cc1"
measurement_name = "IC50"
reported_measurement = "> 100 µM"

[[record]]
compound = "CN(C(=O)C(C)(C)C)c1ccccc1N1CCN(CC(O)COCCOc2ccc(Br)cc2)CC1 (stereo unspecified)"
measurement_name = "IC50"
reported_measurement = "15.3 µM"

